- Test name: Tazarotene solubility in water, glycerin, and 70% glycerin solution
- Type: physicochemical
- Measurement context: 70% glycerin solution, aqueous with cosolvent or surfactant or cyclodextrin; 70% Glycerin, 5 °C
Property: solubility (µg/mL)

# Compound string, Property, Output unit, Number
data = [
    ("CCOC(=O)c1ccc(C#Cc2ccc3c(c2)C(C)(C)CCS3)nc1", "solubility", "µg/mL", 0.27),
]

###

- Test name: Tazarotene solubility in water, glycerin, and 70% glycerin solution
- Type: physicochemical
- Measurement context: glycerin, 40 °C, organic solvent or mixture

# Compound string, solubility / mg/mL
records = [
    ("CCOC(=O)c1ccc(C#Cc2ccc3c(c2)C(C)(C)CCS3)nc1", 0.527),
]
